- System: NCI-H1693
- Assay info: Antiproliferative activity against human NCI-H1693 cells assessed as inhibition of cell viability incubated for 3 to 5 days by Celltiter-Glo luminescent assay
- Assay type: functional, cell-based
Test readout: EC50 (nM)

• CNC(=O)Nc1ccc2c(c1)CC[C@@]21OC(=O)N(CC(=O)N(Cc2ccc(F)cc2)[C@@H](C)C(F)(F)F)C1=O = 2370

* * *

- Target or test system: Protein kinase C zeta type (Homo sapiens)
- Sequence (Q05513 whole entry): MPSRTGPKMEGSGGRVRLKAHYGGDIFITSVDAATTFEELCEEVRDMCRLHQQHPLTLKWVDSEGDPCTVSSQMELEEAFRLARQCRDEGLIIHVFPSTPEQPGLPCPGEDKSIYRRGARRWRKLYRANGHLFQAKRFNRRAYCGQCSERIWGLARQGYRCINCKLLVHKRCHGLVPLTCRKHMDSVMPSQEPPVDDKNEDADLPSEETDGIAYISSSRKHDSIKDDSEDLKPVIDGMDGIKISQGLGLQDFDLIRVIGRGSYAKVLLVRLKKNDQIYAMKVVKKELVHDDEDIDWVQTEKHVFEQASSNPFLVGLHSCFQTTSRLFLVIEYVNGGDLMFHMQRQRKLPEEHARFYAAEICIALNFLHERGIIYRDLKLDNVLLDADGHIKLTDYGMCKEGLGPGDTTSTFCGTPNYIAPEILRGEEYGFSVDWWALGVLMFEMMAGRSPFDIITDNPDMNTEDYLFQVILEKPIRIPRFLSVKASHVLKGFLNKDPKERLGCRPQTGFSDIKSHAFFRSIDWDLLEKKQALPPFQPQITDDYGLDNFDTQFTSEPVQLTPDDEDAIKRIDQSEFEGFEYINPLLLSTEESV
pIC50: −log10 of the molar value.
Test readout: pIC50

- CNC(=O)Nc1ccc2c(c1)CC[C@@]21OC(=O)N(CC(=O)N(Cc2ccc(F)cc2)[C@@H](C)C(F)(F)F)C1=O: < 5.00
